Here's what we have: IC50 numbers for sigma-1 receptor (Cavia porcellus, UniProt Q60492).

Molecule	Result Value
Cc1cc(OCCN2CCOCC2)nn1-c1ccc2c(c1)C=CC(O)C2O (centres unmarked)	> 1 µM

As a next step, examine the molecule that follows.
Simply: Cc1cc(OCC[N+]2([O-])CCOCC2)nn1-c1ccc2ccccc2c1 , sigma-1 receptor (Cavia porcellus, UniProt Q60492), IC50 = > 1 µM
